Molecular target: T1, his-tagged hTfR1 (Acro Biosystems p/n CD1-H5243) (human, UniProt P02786 89-760)
T1 construct: Bought reagent of the SPR assay
T1 sequence (P02786 89-760 limits assumed): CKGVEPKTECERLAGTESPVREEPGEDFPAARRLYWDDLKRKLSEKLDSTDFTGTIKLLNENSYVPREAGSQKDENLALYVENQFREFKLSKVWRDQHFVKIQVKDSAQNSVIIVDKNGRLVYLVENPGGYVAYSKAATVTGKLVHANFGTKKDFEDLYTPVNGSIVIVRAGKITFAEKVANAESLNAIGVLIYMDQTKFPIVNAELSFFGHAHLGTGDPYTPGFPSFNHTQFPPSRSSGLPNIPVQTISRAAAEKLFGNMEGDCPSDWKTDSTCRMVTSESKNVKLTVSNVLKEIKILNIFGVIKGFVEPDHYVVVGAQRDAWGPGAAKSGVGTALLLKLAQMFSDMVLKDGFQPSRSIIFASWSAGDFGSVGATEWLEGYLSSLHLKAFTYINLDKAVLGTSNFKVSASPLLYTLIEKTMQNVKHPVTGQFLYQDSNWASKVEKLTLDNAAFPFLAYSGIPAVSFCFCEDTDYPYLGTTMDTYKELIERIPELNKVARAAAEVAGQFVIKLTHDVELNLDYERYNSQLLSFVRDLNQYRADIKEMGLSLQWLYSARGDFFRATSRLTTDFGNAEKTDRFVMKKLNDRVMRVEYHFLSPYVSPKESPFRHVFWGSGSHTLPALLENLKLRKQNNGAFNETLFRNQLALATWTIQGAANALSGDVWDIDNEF
Test: SPR, Biacore X100, His-tagged TfR1 captured by anti-His
parameter-measured: kon (M⁻¹ s⁻¹)
Answers are plain numbers, in M⁻¹ s⁻¹.

# binder, unit-symbol, kon
rows = [
    ("Fab0064 (Fab, V domains shown) VH: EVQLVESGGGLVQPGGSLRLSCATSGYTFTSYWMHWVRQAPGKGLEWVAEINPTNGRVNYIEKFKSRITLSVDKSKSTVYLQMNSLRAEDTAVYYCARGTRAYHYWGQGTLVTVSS VL: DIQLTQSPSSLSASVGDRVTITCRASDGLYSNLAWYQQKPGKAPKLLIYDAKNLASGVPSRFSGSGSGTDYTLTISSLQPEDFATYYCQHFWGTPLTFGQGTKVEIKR", "M⁻¹ s⁻¹", "1.47e+06"),
]

Lab note: next binder to report on.
Query block: Could you tell me which kon is on file for Fab0069 (Fab, V domains shown) VH: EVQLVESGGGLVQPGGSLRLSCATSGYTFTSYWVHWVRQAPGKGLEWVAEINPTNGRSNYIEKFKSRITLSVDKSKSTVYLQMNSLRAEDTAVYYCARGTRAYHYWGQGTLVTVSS VL: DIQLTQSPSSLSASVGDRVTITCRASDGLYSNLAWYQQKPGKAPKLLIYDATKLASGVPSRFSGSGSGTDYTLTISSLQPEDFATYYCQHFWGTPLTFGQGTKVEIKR ?
Result block: 1.38e+06
